All figures here come from patent US20210277137A1.

Target: human CD40 on cells (human, UniProt P25942 21-277)
Sequence (P25942 21-277 limits assumed): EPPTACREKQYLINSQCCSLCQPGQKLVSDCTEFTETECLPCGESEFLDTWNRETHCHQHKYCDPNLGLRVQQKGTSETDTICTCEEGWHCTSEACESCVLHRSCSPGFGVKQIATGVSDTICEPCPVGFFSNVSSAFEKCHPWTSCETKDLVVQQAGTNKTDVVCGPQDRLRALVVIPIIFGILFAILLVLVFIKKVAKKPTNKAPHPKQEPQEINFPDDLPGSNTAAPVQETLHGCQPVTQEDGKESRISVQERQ
Assay: cell-based or functional assay
For each entry below, report its Maximal activation (OD655) in HEK293 blue CD40 NFκB reporter cells value.
Numbers only, in OD655.

- binder: "Humanized muAb6 #1 (antibody, V domains shown) VH: EVQLVQSGAEVKKPGSSVKVSCKASGYTFTSYWMHWVRQAPGQGLEWIGNIDPSNGETHYNQKFKDRATLTVDKSTSTAYMELSSLRSEDTAVYYCARERIYYSGSTYDGYFDVWGQGTTVTVSS VL: DIQLTQSPSFLSASVGDRVTITCSASSSLSYMHWYQQKPGKSPKRWIYDTSKLASGVPSRFSGSGSGTEYTLTISSLQPEDFATYYCQQWSSNPWTFGGGTKVEIK"
  result units: "OD655"
  measured: 0.26

Next item in the queue.
Maximal activation (OD655) in HEK293 blue CD40 NFκB reporter cells lookup needed for Humanized muAb8 #1 (antibody, V domains shown, human IgG1 constant region (natural variants D356E and L358M) and kappa light chain; also called huAb8-1) VH: EVQLVQSGAEVKKPGSSVKVSCKASGYTFTDYYINWVRQAPGQGLEWIGWIFPGSGSVYCNEQFKGRATLTVDRSTSTAYMELSSLRSEDTAVYFCASSLGKFAYWGQGTLVTVSS VL: DIQMTQSPSSLSASVGDRVTITCKASQSVVTAVAWYQQKPGKSPKLLIYSASNRYTGVPSRFSGSGSGTDFTLTISSLQPEDFATYFCQQYSSYPYTFGGGTKVEIK , thanks.
0.45
